- assayMethodText: binders of probe aHhip on microarray, primary screen, stem cell growth factor project, biochemical, small-molecule microarray, fluorescence 635/667 (AID 1087);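 also: score merges spot fluorescence at 667nm with spot signal to noise ratio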
- conditionContext: higher = more signal
measuredMetric: composite z-score
Provide a numeric answer; units are not to be included.

**Q:** I'd like to know its composite z-score. The molecule in question is COc1ccc(NN2C(C(O)c3ccc(I)cc3)C=CC3C(=O)N(C4CCCCC4)C(=O)C32)cc1 (centres undefined)
**A:** 0.245

**Q:** I'd like to know its composite z-score. The molecule in question is COc1ccc(C(O)C2C=CC3C(=O)NC(=O)C3N2Nc2ccc(Cl)cc2Cl)c2ccccc12 (centres undefined)
**A:** -0.216

**Q:** I'd like to know its composite z-score. The molecule in question is [N-]=[N+]=Nc1ccccc1C[C@@]1(C(=O)NCC(O)CO)N=C(c2ccc(OCCCO)cc2)O[C@@H]1c1ccccc1 (some centres undefined)
**A:** -0.0994

**Q:** I'd like to know its composite z-score. The molecule in question is COc1ccc([Si](C)(C)[C@@H]2[C@@H](CC(=O)N(CCO)Cc3ccccc3)O[C@]3(C(=O)N(Cc4ccc(N5C(=O)c6cccc7cccc5c67)cc4)c4ccccc43)[C@H]2C)cc1
**A:** -0.353

----------
- Test system: XIP peptide (Xip251-270)
- assayMethodText: compounds binding XIP fragment 251-270 – biochemical, small-molecule microarray, fluorescence 635/667 nm, 0.5 µg/mL protein, primary screen (AID 1183)
- conditionContext: fluorescence 635 nm, higher = more signal
Provide the reported composite z-score of each item.
Provide a numeric answer; units are not to be included.

**Q:** I'd like to know its composite z-score. The compound in question is NC(=O)N1C(=O)C2C(C1=O)C1C=C(CCCO)C2C(c2ccc(CN3CCCC3)cc2)N1Cc1cc2c(cc1Br)OCO2 (stereo not drawn)
**A:** -0.0073

**Q:** I'd like to know its composite z-score. The compound in question is C[C@]1(C(=O)O)c2ccccc2C(=O)N(Cc2cc(F)cc(C(F)(F)F)c2)[C@H]1c1ccc(CO)cc1
**A:** 0.778

**Q:** I'd like to know its composite z-score. The compound in question is CCCc1cc2c(n1CCc1ccc(Cl)cc1)C(C)C1CN(C(=O)c3ccccc3)C(C)(C(=O)OC)C21 (stereo not drawn)
**A:** 0.201

**Q:** I'd like to know its composite z-score. The compound in question is COc1ccc([Si](C)(C)[C@H]2[C@H](CC(=O)N3Cc4ccccc4C[C@H]3CO)O[C@@]3(C(=O)N(C)c4c(Br)cc(C)cc43)[C@@H]2C)cc1
**A:** 0.445

**Q:** I'd like to know its composite z-score. The compound in question is C=C(COC)/C(=C/C[C@H](OC(C)=O)c1ccccc1OCCO)c1cc(C(=O)OC)ccc1OC
**A:** 0.788

**Q:** I'd like to know its composite z-score. The compound in question is COc1ccc(C(O)C2C=CC3C(=O)N(c4ccccc4)C(=O)C3N2Nc2ccc(C#N)cc2)cc1OCc1ccccc1 (stereo not drawn)
**A:** 0.556

**Q:** I'd like to know its composite z-score. The compound in question is CCCCC(O)C1C=CC2C(=O)N(c3ccccc3)C(=O)C2N1Nc1ccccc1 (stereo not drawn)
**A:** 0.137

**Q:** I'd like to know its composite z-score. The compound in question is CN(C)CCCC[C@@H]1NC(=O)[C@@H]2C[C@H](C(=O)NCCCCCN)[C@H](c3cccc(OCCO)c3)N2C1=O
**A:** 0.898

**Q:** I'd like to know its composite z-score. The compound in question is CC(=O)OCC1C2CC[C@H]3C(OCc4ccc(F)cc4C(F)(F)F)OC[C@]4(C)[C@H]3C2=C(CN4C(=O)OC(C)(C)C)[C@H](C)C1COC(C)=O (stereo partly drawn)
**A:** 0.653

**Q:** I'd like to know its composite z-score. The compound in question is CC(C)NC(=O)[C@@H]1c2ccccc2C(=O)N(Cc2ccc(OC(F)(F)F)cc2)[C@H]1c1ccc(CO)cc1
**A:** 0.72

**Q:** I'd like to know its composite z-score. The compound in question is COc1ccc([Si](C)(C)[C@H]2[C@H](CCO)O[C@@]3(C(=O)N(Cc4cccc(N(C=O)c5ccccc5)c4)c4ccccc43)[C@@H]2C)cc1
**A:** 0.665

**Q:** I'd like to know its composite z-score. The compound in question is [N-]=[N+]=Nc1ccccc1[C@@H]1OC(c2ccc(OCCCO)cc2)=N[C@]1(CCS(=O)(=O)c1ccccc1)C(=O)NCC(O)CO (stereo partly drawn)
**A:** 0.947

**Q:** I'd like to know its composite z-score. The compound in question is O=C(NCC(O)CO)C1N=C(c2ccc(OCCCO)cc2)N(c2ccccc2)O1 (stereo not drawn)
**A:** 0.801

**Q:** I'd like to know its composite z-score. The compound in question is COc1ccc(C(=O)Nc2cccc(CN3C(=O)[C@@]4(O[C@@H](CC(=O)N5CCC[C@H]5CO)[C@H]([Si](C)(C)c5ccc(OC)cc5)[C@H]4C)c4ccccc43)c2)cc1
**A:** 0.639

**Q:** I'd like to know its composite z-score. The compound in question is C[C@@H]1ON(c2ccccc2)[C@H](c2ccccc2)[C@H]1C(=O)O
**A:** 0.0627

**Q:** I'd like to know its composite z-score. The compound in question is COC(=O)[C@@]1(Cc2ccc(F)cc2)[C@H]2c3cc(C(=O)N4CCCC4)n(CCc4ccccn4)c3C[C@H]2CN1C(=O)c1ccccc1
**A:** -0.189

**Q:** I'd like to know its composite z-score. The compound in question is COC(=O)[C@@]1(Cc2ccccc2)[C@H]2c3cc(C(=O)N(C)C)n(CCO)c3C[C@H]2CN1C(=O)c1ccccc1
**A:** 0.182

**Q:** I'd like to know its composite z-score. The compound in question is CCCC=C(CCC)[C@@H](NC(=O)c1ccc(C(F)(F)F)cc1)c1ccc(C(F)(F)F)cc1
**A:** 0.541

**Q:** I'd like to know its composite z-score. The compound in question is COC(=O)C(CC#Cc1ccc2c(c1)[C@]1(C(=O)N2)[C@H](c2ccccc2OCCO)N2[C@H](c3ccccc3)[C@H](c3ccccc3)OC(=O)[C@H]2[C@@H]1C(=O)N1CCc2cc(OC)c(OC)cc2C1)C(=O)OC
**A:** 0.621

**Q:** I'd like to know its composite z-score. The compound in question is COc1ccc([Si](C)(C)[C@@H]2[C@@H](CC(=O)N3Cc4ccccc4C[C@H]3CO)O[C@]3(C(=O)N(Cc4ccc(N5CCOC5=O)cc4)c4ccccc43)[C@H]2C)cc1
**A:** 0.83

**Q:** I'd like to know its composite z-score. The compound in question is O=C1[C@H]2C=C(I)[C@H](C[C@@H]2c2ccccc2)[C@@]12CO2
**A:** -0.321

**Q:** I'd like to know its composite z-score. The compound in question is CC(C)(C)N1CC=CC23O[C@@H]4C=CCCOC(=O)C4[C@H]2C(=O)N(CCCCCCO)[C@@H]3C1=O (stereo partly drawn)
**A:** 0.202

**Q:** I'd like to know its composite z-score. The compound in question is COc1ccc([Si](C)(C)[C@@H]2[C@@H](CC(=O)N3CCC[C@H]3CO)O[C@]3(C(=O)N(Cc4ccc(N5CCOC5=O)cc4)c4ccccc43)[C@H]2C)cc1
**A:** 0.727

----------
- assayedSystem: Left-right determination factor 2 (Homo sapiens) (UniProt O00292)
- Sequence (O00292 whole entry, looked up): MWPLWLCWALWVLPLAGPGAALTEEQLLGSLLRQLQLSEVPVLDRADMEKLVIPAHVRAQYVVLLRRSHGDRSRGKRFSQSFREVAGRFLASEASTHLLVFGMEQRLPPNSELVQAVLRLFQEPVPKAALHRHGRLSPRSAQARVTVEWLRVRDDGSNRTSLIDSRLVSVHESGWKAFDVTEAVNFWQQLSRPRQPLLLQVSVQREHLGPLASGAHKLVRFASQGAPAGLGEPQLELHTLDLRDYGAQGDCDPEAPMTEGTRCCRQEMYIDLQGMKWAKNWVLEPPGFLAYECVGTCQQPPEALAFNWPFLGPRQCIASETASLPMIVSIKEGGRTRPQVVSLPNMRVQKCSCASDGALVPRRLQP
- assayMethodText: small molecules binding LEFTY2 protein – biochemical, small-molecule microarray, 635 nm fluorescence scan, primary screen (AID 1110)
- conditionContext: higher = more signal
Give satisfied when the value for composite z-score is at least 0.5. Give not satisfied when it is less.

**Q:** Please tell me: is the compound CN(C)CCCC[C@@H]1NC(=O)[C@@H]2C[C@H](C(=O)NCCCCCCNC(=O)CS)[C@H](c3ccc(O)cc3)N2C1=O at or over 0.5 in terms of composite z-score?
**A:** satisfied

**Q:** Please tell me: is the compound NC(=O)N1C(=O)C2C(C1=O)C1C=C(CCCO)C2C(c2ccc(CN3CCCC3)cc2)N1Cc1cc2c(cc1Br)OCO2 (stereo not drawn) at or over 0.5 in terms of composite z-score?
**A:** satisfied

**Q:** Please tell me: is the compound NCCCCCCNC(=O)[C@@H]1C[C@@H]2C(=O)N3CCC[C@H]3C(=O)N2[C@@H]1c1cccc(OCCO)c1 at or over 0.5 in terms of composite z-score?
**A:** satisfied

**Q:** Please tell me: is the compound CN1C(=O)C2C(C3CC3)C=C3CN(Cc4cccc(Cl)c4)[C@@H]([C@@H](O)Cc4ccccc4)C3C2C1=O (stereo partly drawn) at or over 0.5 in terms of composite z-score?
**A:** satisfied

**Q:** Please tell me: is the compound O=C1C[C@]2(c3ccc([N+](=O)[O-])cc3)C(=O)N(C3CC3)c3cc(CO)ccc3[C@H]2N1C1CCCCC1 at or over 0.5 in terms of composite z-score?
**A:** not satisfied

**Q:** Please tell me: is the compound CC(C)OC(=O)CC(=O)CC(O)c1cccc([N+](=O)[O-])c1 (stereo not drawn) at or over 0.5 in terms of composite z-score?
**A:** not satisfied

**Q:** Please tell me: is the compound COCCOC(=O)N1C(=O)[C@@]2(c3cc(C#CCC(C(=O)OC)C(=O)OC)ccc31)[C@H](C(N)=O)[C@H]1C(=O)O[C@H](c3ccccc3)[C@H](c3ccccc3)N1[C@@H]2c1ccc(O)cc1 at or over 0.5 in terms of composite z-score?
**A:** satisfied

**Q:** Please tell me: is the compound O=C1[C@@H]2[C@@H](CC(COc3ccccc3)=C([C@H](O)CCc3ccccc3)[C@@H]2CO)C(=O)N1Cc1ccccc1 at or over 0.5 in terms of composite z-score?
**A:** not satisfied
